Test: Maximal excitation and emission wavelengths
Type: physicochemical
Conditions: 50 μM in 0.1 M phosphate buffer, 30° C.; SD ±2 nm
Parameter: Ex, maximal excitation wavelength (nm)

>  <Query smiles>
COc1ccc(N)cn1

>  <Ex, maximal excitation wavelength [nm]>
302

$$$$
>  <Query smiles>
Nc1ccc(F)nc1

>  <Ex, maximal excitation wavelength [nm]>
292

$$$$
>  <Query smiles>
Nc1cccnc1F

>  <Ex, maximal excitation wavelength [nm]>
282

$$$$
>  <Query smiles>
Cc1ccncc1N

>  <Ex, maximal excitation wavelength [nm]>
280

$$$$
>  <Query smiles>
COc1ncccc1N

>  <Ex, maximal excitation wavelength [nm]>
284

$$$$

###

Test: Maximal excitation and emission wavelengths
Type: physicochemical
Conditions: 50 μM in 0.1 M phosphate buffer, 30° C.; SD ±2 nm
Parameter: Ex, maximal excitation wavelength (nm)

>  <Query smiles>
Cc1ccc(N)cn1

>  <Ex, maximal excitation wavelength (nm)>
290

$$$$
>  <Query smiles>
COc1ccc(N)c(C)n1

>  <Ex, maximal excitation wavelength (nm)>
304

$$$$
>  <Query smiles>
Nc1cccnc1

>  <Ex, maximal excitation wavelength (nm)>
286

$$$$

###

Assay: Molar extinction coefficient of fluorescent reporters
Format: physicochemical
Conditions: H2O containing 1% ethanol, 290 nm, 30° C., 10-50 μM
Parameter: εmax, molar extinction coefficient (M⁻¹ cm⁻¹)

Past entries and their recorded results:
>  <Compound>
Nc1ccc(F)nc1 [Compound 5, 5-amino-2-fluoropyridine]

>  <Readout unit>
M⁻¹ cm⁻¹

>  <Quantitative result>
2360

$$$$
>  <Compound>
Cc1ccc(N)cn1 [Compound 3, 3-amino-6-methylpyridine]

>  <Readout unit>
M⁻¹ cm⁻¹

>  <Quantitative result>
2700

$$$$
>  <Compound>
Nc1cccnc1F [Compound 4, 3-amino-2-fluoropyridine]

>  <Readout unit>
M⁻¹ cm⁻¹

>  <Quantitative result>
3670

$$$$
>  <Compound>
Nc1cccnc1 [Compound 1, 3-aminopyridine]

>  <Readout unit>
M⁻¹ cm⁻¹

>  <Quantitative result>
2890

$$$$
>  <Compound>
COc1ccc(N)c(C)n1 [Compound 8, 3-amino-6-methoxy-2-picoline]

>  <Readout unit>
M⁻¹ cm⁻¹

>  <Quantitative result>
4130

$$$$

[a] COc1ccc(N)cn1 [Compound 6, 5-amino-2-methoxypyridine]
[b] COc1ncccc1N [Compound 7, 3-amino-2-methoxypyridine]
Q) Name the one with the greater εmax, molar extinction coefficient value, either a or b as given. Selection: enter the item's label.
A) b

###

Below, each entry is listed with its recorded base line, Average.
Target: microsomal fatty acid amide hydrolase (FAAH) (Homo sapiens, UniProt O00519)
Construct: made in house; host or cells: Trichoplusia ni High Five cells infected with recombinant baculovirus Ac-hFAAH; microsomal fraction
Sequence (O00519 whole entry): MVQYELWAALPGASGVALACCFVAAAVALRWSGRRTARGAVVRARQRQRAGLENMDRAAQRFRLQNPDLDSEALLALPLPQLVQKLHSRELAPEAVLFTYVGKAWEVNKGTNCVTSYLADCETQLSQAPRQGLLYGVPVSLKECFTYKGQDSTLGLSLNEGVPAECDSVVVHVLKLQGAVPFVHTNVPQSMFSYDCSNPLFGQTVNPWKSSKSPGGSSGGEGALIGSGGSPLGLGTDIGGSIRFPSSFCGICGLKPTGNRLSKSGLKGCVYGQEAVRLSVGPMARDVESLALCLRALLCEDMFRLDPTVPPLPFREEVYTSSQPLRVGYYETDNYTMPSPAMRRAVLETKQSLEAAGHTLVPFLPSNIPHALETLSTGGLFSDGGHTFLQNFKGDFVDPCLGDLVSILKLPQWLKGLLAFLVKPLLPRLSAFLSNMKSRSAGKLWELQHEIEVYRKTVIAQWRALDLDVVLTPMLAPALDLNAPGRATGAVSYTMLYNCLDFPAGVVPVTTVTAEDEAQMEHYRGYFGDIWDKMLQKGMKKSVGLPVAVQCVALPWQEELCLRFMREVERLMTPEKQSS
Assay: Lowest detection limits of microsomal FAAH toward colorimetric and fluorescent substrates
Type: biochemical
Settings: 0 min; protein 0.11 (13), 0.67 (14), 100 (15), 0.5 (17) μg/well; 200 μM (13),(14), 25 μM (15), 50 μM (17)
Unit RFU implied. Number only.

Known results for molecules:
>  <Molecule>
CCCCCCCC(=O)Nc1ccc(OC)nc1 [Compound 13, N-(6-methoxypyridin-3-yl) octanamide]

>  <Quantitative result>
302

$$$$
>  <Molecule>
CCCCCCCC(=O)Nc1ccc(OC)nc1C

>  <Quantitative result>
194

$$$$
>  <Molecule>
CCCCC/C=C\C/C=C\C/C=C\C/C=C\CCCC(=O)Nc1ccc(OC)nc1

>  <Quantitative result>
148

$$$$

Shift focus to the following entry.
Q) So what's the measured base line, Average for this one? CCCCCCCC(=O)Nc1ccc2c(C(F)(F)F)cc(=O)oc2c1
A) 132

###

Test: Maximal excitation and emission wavelengths
Type: physicochemical
Conditions: 50 μM in 0.1 M phosphate buffer, 30° C.; SD ±2 nm
Parameter: Em, maximal emission wavelength (nm)

>  <Query smiles>
COc1ccc(N)c(C)n1

>  <Readout unit>
nm

>  <Quantitative result>
392

$$$$
>  <Query smiles>
Nc1cccnc1F

>  <Readout unit>
nm

>  <Quantitative result>
374

$$$$
>  <Query smiles>
Cc1ccncc1N

>  <Readout unit>
nm

>  <Quantitative result>
376

$$$$
>  <Query smiles>
Nc1ccc(F)nc1

>  <Readout unit>
nm

>  <Quantitative result>
384

$$$$
>  <Query smiles>
COc1ccc(N)cn1

>  <Readout unit>
nm

>  <Quantitative result>
396

$$$$
>  <Query smiles>
Nc1cccnc1

>  <Readout unit>
nm

>  <Quantitative result>
378

$$$$
>  <Query smiles>
Cc1ccc(N)cn1

>  <Readout unit>
nm

>  <Quantitative result>
384

$$$$
>  <Query smiles>
COc1ncccc1N

>  <Readout unit>
nm

>  <Quantitative result>
378

$$$$

###

Target: microsomal fatty acid amide hydrolase (FAAH) (Homo sapiens)
Construct: made in house; host or cells: Trichoplusia ni High Five cells infected with recombinant baculovirus Ac-hFAAH; microsomal fraction
Assay: Lowest detection limits of microsomal FAAH toward colorimetric and fluorescent substrates
Assay type: biochemical
Settings: 10 min; protein 0.11 (13), 0.67 (14), 100 (15), 0.5 (17) μg/well; 200 μM (13),(14), 25 μM (15), 50 μM (17)
Marks after values point to notes of the source that are not given here.
Attribute: signal, Average

>  <Compound>
CCCCCCCC(=O)Nc1ccc2c(C(F)(F)F)cc(=O)oc2c1

>  <signal, Average>
161 RFU

$$$$
>  <Compound>
CCCCC/C=C\C/C=C\C/C=C\C/C=C\CCCC(=O)Nc1ccc(OC)nc1

>  <signal, Average>
559* RFU

$$$$
>  <Compound>
CCCCCCCC(=O)Nc1ccc(OC)nc1 [Compound 13, N-(6-methoxypyridin-3-yl) octanamide]

>  <signal, Average>
1091* RFU

$$$$

The record that follows has no signal, Average shown yet.
Q) Item under review: CCCCCCCC(=O)Nc1ccc(OC)nc1C . Reported signal, Average?
A) 728* RFU

###

Tested on: amidases, microsomes from High Five cells
Assay: Specific activity, microsomes from High Five cells
Conditions: pH 8.0, 37° C.; NM = not measurable at the same protein concentration as other substrates
Parameter: Specific activity, Microsomes from High Five cells (pmol/min/mg protein)
Quick note: give the figure in pmol/min/mg protein, leave out the unit.

Q) amidases, microsomes from High Five cells / Specific activity, Microsomes from High Five cells / CCCCCCCC(=O)Nc1ccc(OC)nc1 [Compound 13, N-(6-methoxypyridin-3-yl) octanamide] : value?
A) 793

Q) Also, CCCCC/C=C\C/C=C\C/C=C\C/C=C\CCCC(=O)Nc1ccc(OC)nc1 [Compound 17] please.
A) 5.62

Q) Another compound: COc1ccc(NC(C)=O)cn1 [Compound 10, N-(6-methoxypyridin-3-yl) acetamide]
A) 56

Q) What about this compound? CCCCCCCC(=O)Nc1ccc(OC)nc1C [Compound 14]
A) 591

###

Test: Fluorescence quantum yield
Assay type: physicochemical
Settings: 10 μM, 1% ethanol in water, excitation 290 nm, standard 3-aminopyridine; SD under ±5%
Parameter: ØF, fluorescence quantum yield

Examples with their reported ØF, fluorescence quantum yield follow.
>  <Query smiles>
Cc1ccc(N)cn1

>  <Quantitative result>
0.62

$$$$
>  <Query smiles>
COc1ccc(N)cn1

>  <Quantitative result>
0.95

$$$$
>  <Query smiles>
Cc1ccncc1N

>  <Quantitative result>
0.53

$$$$
>  <Query smiles>
Nc1ccc(F)nc1

>  <Quantitative result>
0.72

$$$$
>  <Query smiles>
COc1ncccc1N

>  <Quantitative result>
0.27

$$$$

[1] Nc1cccnc1F
[2] COc1ccc(N)c(C)n1
Q) Please choose the item with the lower ØF, fluorescence quantum yield value from this pair: 1 and 2 Give the label of your selection.
A) 1
